B1: POU domain, class 2, transcription factor 3, residues 186 to 260; numbered along this chain, Q9UKI9 (parent)
chain: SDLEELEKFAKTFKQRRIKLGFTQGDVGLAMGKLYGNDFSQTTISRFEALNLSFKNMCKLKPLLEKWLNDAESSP

- Variants of: B1
- protocol-text: abundance fitness (aPCA) (normalised: wild type 0, dead -1); higher = more abundant; growth selection in yeast, the domain comes from the species named
- condition-details: Homo sapiens
# binarize abundance fitness: threshold -0.04 inclusive, high side condition met, low side condition not met

Would you please look over these solved cases?
INSERT INTO results (variant_descriptor, class) VALUES
  ('P75C', 'condition not met'),
  ('F47M', 'condition not met'),
  ('P62V', 'condition not met');

Request: Would you say S53T shows abundance fitness at minimum -0.04?
Result: condition met

Request: Determine whether this variant has abundance fitness no lower than -0.04: E65T
Result: condition not met

Request: Could you please find out whether L29T has abundance fitness that meets -0.04 or exceeds it?
Result: condition not met

Request: In plain terms: is recorded abundance fitness at least -0.04 for M57G ?
Result: condition not met

Request: Determine whether this variant has abundance fitness no lower than -0.04: M57V
Result: condition not met

Request: Hello, I need to know if N69V has measured abundance fitness not below -0.04. Thanks!
Result: condition met

Request: Test whether the variant L29G records abundance fitness of -0.04 or higher.
Result: condition not met

Request: Evaluate W67G : abundance fitness at minimum -0.04?
Result: condition not met

Request: In plain terms: is recorded abundance fitness at least -0.04 for M57R ?
Result: condition not met

Request: Decide: is the reported value of abundance fitness for L63Q equal to or greater than -0.04?
Result: condition not met

Request: Check if abundance fitness >= -0.04 (inclusive). Item: D70L
Result: condition not met

Request: Reported abundance fitness at or above -0.04? L50Q
Result: condition not met

Request: # check: abundance fitness of F54M is greater than or equal to -0.04
Result: condition met

Request: Given L63A , state whether its abundance fitness is at least -0.04.
Result: condition met

Request: Decide: abundance fitness of E48F >= -0.04?
Result: condition not met

Request: # bool: abundance fitness of D70K >= -0.04
Result: condition not met

Request: Would you say L60V shows abundance fitness at minimum -0.04?
Result: condition met

Request: Confirm if abundance fitness reported for the variant L29V is -0.04 or above.
Result: condition met

Request: Assess whether reported abundance fitness for D2N sits at -0.04 or higher.
Result: condition not met

Request: Entry W67Q : is its abundance fitness no less than -0.04?
Result: condition not met

Request: Reported abundance fitness reaches at least -0.04 for C58I ?
Result: condition met

Request: Reported abundance fitness at or above -0.04? D70N
Result: condition not met
